Tested on: T-47D cells
Assay: Caspase cascade activation (N-(Ac-DEVD)-N'-ethoxycarbonyl-R110 fluorogenic substrate) in T-47D cells
Format: cell-based, Human
Settings: Homo sapiens, T47D, 24 h incubation, read-out: Caspase potency EC50
Procedure: Human breast cancer cell lines T-47D and ZR-75-1 were grown according to media component mixtures designated by American Type Culture Collection+10% FCS (Invitrogen Corporation, Life Technologies Division), in a 5% CO2-95% humidity incubator at 37° C. […] After the 3 h incubation, the samples were read for fluorescence as above (T=3 h). The Relative Fluorescence Unit values (RFU) were used to calculate the sample readings as follows: RFU(T=3h)−Control RFU(T=0)=Net RFU(T=3h) […]
OBSERVED_PROPERTY: pEC50
Numbers only, as −log10 of the molar value.

Some molecules with recorded pEC50:
O=C(C=Cc1ccc([N+](=O)[O-])cc1)c1cc(OCC(F)(F)F)ccc1OCC(F)(F)F [Example 15] = 5.17
O=C(C=Cc1ccc(C(F)(F)F)cc1)c1cc(OCC(F)(F)F)ccc1OCC(F)(F)F [Example 4] = 5.30

Turning to the following molecule.
Identify measured pEC50 associated with O=C(C=Cc1ccccc1)c1cc(OCC(F)(F)F)ccc1OCC(F)(F)F [Example 3]
5.80
